tested on: soybean (Glycine max); experiment: Test A preemergence soil spray, visual injury rating 0-100; format: in vivo; conditions: 125 g ai/ha, 10 days, 0 = no effect, 100 = complete control
READOUT NAME: Soybean plant response rating (0 to 100 scale)
Would you mind answering with just the numeric figure?

Known Soybean plant response rating (0 to 100 scale) results, listed for orientation:
Ask | Quick one: Soybean plant response rating (0 to 100 scale) of CC1(C(=O)NC2CC=C(C(=O)OCC(F)(F)F)C2)CN(c2cc(Cl)cc(Cl)c2)C(=O)O1 (stereo not shown) [Compound 71] ?
Reply | 70

Ask | Now consider COC(=O)C1C=CC(NC(=O)C2(C)CN(c3cc(Cl)cc(Cl)c3)C(=O)O2)C1 (stereo not shown) [Compound 42] .
Reply | 40

Ask | Same question for CC1(C(=O)NC2C=CC(C(=O)OCCS(C)(=O)=O)C2)CN(c2cc(Cl)cc(Cl)c2)C(=O)O1 (stereo not shown) [Compound 46] please.
Reply | 10

Ask | Next record, please: CC1(C(=O)NC2C=CC(C(=O)OCC(F)(F)F)C2)CN(c2cc(F)cc(F)c2)C(=O)O1 (stereo not shown) [Compound 55]
Reply | 80

Ask | Also COC(=O)C1C=CC(NC(=O)C2(C)CN(c3cc(F)cc(Cl)c3)C(=O)O2)C1 (stereo not shown) [Compound 17] ?
Reply | 80

Others:
Ask | Tell me the measured Soybean plant response rating (0 to 100 scale) of CC1(C(=O)NC2C=CC(C(=O)OCc3ccc(F)cc3)C2)CN(c2cc(F)cc(F)c2)C(=O)O1 (stereo not shown) [Compound 54] , please.
Reply | 70

Ask | Follow-up item: CC1(C(=O)NC2C=CC(C(=O)OCC#N)C2)CN(c2cc(F)cc(F)c2)C(=O)O1 (stereo not shown) [Compound 35]
Reply | 80

----------
system: corn (Zea mays); experiment: Test A postemergence application, visual injury rating 0-100; format: in vivo; conditions: Postemergence, 16 g ai/ha, greenhouse 10 days; 0 no effect, 100 complete control
READOUT NAME: Corn plant response rating (0 to 100 scale)
Answer with a number only.

Below, each entry is followed by its recorded Corn plant response rating (0 to 100 scale) result.
Ask | I would be grateful if you could share the reported Corn plant response rating (0 to 100 scale) for COC(=O)COC(=O)C1=CCC(NC(=O)C2(C)CN(c3cc(Cl)cc(Cl)c3)C(=O)O2)C1 (centres unmarked) [Compound 110] .
Reply | 100

Ask | Check CC(C)COC(=O)C1=CCC(NC(=O)C2(C)CN(c3cc(F)cc(Cl)c3)C(=O)O2)C1 (centres unmarked) [Compound 143] too.
Reply | 0

Ask | Cool, now CC1(C(=O)NC2C=CC(C(=O)O)C2)CN(c2cc(F)c(F)c(F)c2)C(=O)O1 (centres unmarked) [Compound 123]
Reply | 70

Ask | Then this compound: CC1(C(=O)NC2CC=C(C(=O)O)C2)CN(c2cc(Cl)cc(Cl)c2)C(=O)O1 (centres unmarked) [Compound 157]
Reply | 0

Ask | Queued: COC(=O)C1=CCC(NC(=O)C2(C)CN(c3cc(Cl)c(F)c(Cl)c3)C(=O)O2)C1 (centres unmarked) [Compound 129]
Reply | 70

Ask | Moving on to the next compound: COC(=O)C1CC(NC(=O)C2(C(F)(F)F)CN(c3cc(F)cc(F)c3)C(=O)O2)C2CC12 (centres unmarked) [Compound 177]
Reply | 30

Ask | Next compound: COC(=O)C1C=CC(NC(=O)C2(C)CN(c3cc(F)cc(F)c3)C(=O)O2)C1 (centres unmarked) [Compound 92]
Reply | 0

Next compound, Corn plant response rating (0 to 100 scale) to be filled in.
Ask | Name the recorded Corn plant response rating (0 to 100 scale) for C=CC1(C(=O)NC2CC(C(=O)OC)C2)CN(c2cc(F)cc(F)c2)C(=O)O1 (centres unmarked) [Compound 172] .
Reply | 100

----------
Overview of recorded Ragweed plant response rating (0-100) for various compounds
system: ragweed (common ragweed, Ambrosia artemisiifolia); test: Test A preemergence soil spray, visual injury rating 0-100; assay type: in vivo; settings: 62 g ai/ha, 10 days, 0 = no effect, 100 = complete control
Just the number.

Some entries whose results are on file:
Ask | What value of measured Ragweed plant response rating (0-100) is listed for COC(=O)COC(=O)C1=CCC(NC(=O)C2(C)CN(c3cc(F)cc(F)c3)C(=O)O2)C1 (stereo not shown) [Compound 108] ?
Reply | 0

Ask | Queued: COC(=O)C1C=CC(NC(=O)C2(C)CN(c3cc(C)cc(C)c3)C(=O)O2)C1 (stereo not shown) [Compound 115]
Reply | 0

Ask | Okay, and CC(C)OC(=O)C1=CCC(NC(=O)C2(C)CN(c3cc(Cl)cc(Cl)c3)C(=O)O2)C1 (stereo not shown) [Compound 105] ?
Reply | 0

Lab note: next compound to report on.
Ask | Item C=CC1(C(=O)NC2C=CC(C(=O)O)C2)CN(c2cc(F)cc(F)c2)C(=O)O1 (mixture of isomers) [Compound 166] has what recorded Ragweed plant response rating (0-100)?
Reply | 30

----------
test system: oat, wild (wild oat, Avena fatua); experiment: Test A postemergence application, visual injury rating 0-100; type: in vivo; conditions: Postemergence, 16 g ai/ha, greenhouse 10 days; 0 no effect, 100 complete control
Label 1 (yes) when Oat, Wild plant response rating (0 to 100 scale) is at or above 30; otherwise label 0 (no).

Ask | Entry C=CC1(C(=O)NC2COC(C(=O)OC)C2)CN(c2cc(F)cc(F)c2)C(=O)O1 (stereo not drawn) : is its Oat, Wild plant response rating (0 to 100 scale) no less than 30?
Reply | 1 (yes)

***
Ask | Quick check: does CC1(C(=O)NC2CC(C(=O)O)C2)CN(c2cc(F)cc(Cl)c2)C(=O)O1 (racemic) have Oat, Wild plant response rating (0 to 100 scale) greater than or equal to 30?
Reply | 1 (yes)

Ask | What do we get for CC1(C(=O)NC2CC=C(C(=O)OCC3CC3)C2)CN(c2cc(F)cc(Cl)c2)C(=O)O1 (stereo not drawn) ?
Reply | 0 (no)

Ask | How about this compound: CC1(C(=O)NC2C=CC(C(=O)O)C2)CN(c2cc(F)cc(F)c2)C(=O)O1 (stereo not drawn)
Reply | 1 (yes)

Ask | Proceed to CC1(C(=O)NC2CC=C(C(=O)NS(=O)(=O)C3CC3)C2)CN(c2cc(F)cc(F)c2)C(=O)O1 (racemic)
Reply | 0 (no)

Ask | Proceed to CC1(C(=O)NC2CC=C(C(=O)OCC(F)(F)F)C2)CN(c2cc(F)cc(Cl)c2)C(=O)O1 (stereo not drawn)
Reply | 0 (no)

Ask | Check CC1(C(=O)NC2C=CC(C(=O)O)C2)CN(c2cc(F)c(F)c(F)c2)C(=O)O1 (stereo not drawn) too.
Reply | 1 (yes)

Ask | Record: COC(=O)C1C=CC(NC(=O)C2(C)CN(c3cc(F)cc(F)c3)C(=O)O2)C1 (stereo not drawn) [Compound 92]
Reply | 0 (no)

Ask | Now try C=CC1(C(=O)NC2C=CC(C(=O)OC)C2)CN(c2cc(F)cc(F)c2)C(=O)O1 (single isomer, unassigned) .
Reply | 0 (no)

Ask | Another: CC1(C(=O)NC2CC=C(C(=O)NS(=O)(=O)c3ccccc3)C2)CN(c2cc(F)cc(F)c2)C(=O)O1 (racemic)
Reply | 0 (no)

----------
Item-by-item account of Wheat plant response rating (0-100)
test system: wheat (Triticum aestivum); test: Test A preemergence soil spray, visual injury rating 0-100; format: in vivo; conditions: 31 g ai/ha, 10 days, 0 = no effect, 100 = complete control
Please give only the number in your answer, with no unit.

Reference set (5 entries):
Ask | Sample CCCS(=O)(=O)OC(=O)C1C=CC(NC(=O)C2(C)CN(c3cc(Cl)cc(Cl)c3)C(=O)O2)C1 (mixture of isomers) — what was its Wheat plant response rating (0-100)?
Reply | 10

Ask | How about CC1(C(=O)NC2CC=C(C(=O)O)C2)CN(c2cc(F)cc(F)c2)C(=O)O1 (stereo not shown) ?
Reply | 40

Ask | COC(=O)C1CC(NC(=O)C2(C)CN(c3cc(F)cc(F)c3)C(=O)O2)CO1 (stereo not shown) ?
Reply | 0

Ask | Proceed to CCOC(=O)C1=CCC(NC(=O)C2(C)CN(c3cc(Cl)cc(Cl)c3)C(=O)O2)C1 (stereo not shown)
Reply | 20

Ask | Next compound up: CSCCOC(=O)C1=CCC(NC(=O)C2(C)CN(c3cc(F)cc(F)c3)C(=O)O2)C1 (stereo not shown)
Reply | 80

Further cases:
Ask | // lookup Wheat plant response rating (0-100) for CCOC(=O)C1CCC(NC(=O)C2(C)CN(c3cc(F)cc(Cl)c3)C(=O)O2)C1 (stereo not shown)
Reply | 70

Ask | Further, for CC1(C(=O)NC2CC=C(C(=O)O)C2)CN(c2cc(Cl)cc(Cl)c2)C(=O)O1 (stereo not shown) ?
Reply | 40

Ask | Again, but for COC(=O)C1=CCC(NC(=O)C2(C)CN(c3cc(F)cc(F)c3)C(=O)O2)C1 (single isomer, unassigned)
Reply | 0

Ask | Also CC(C)OC(=O)C1CC(NC(=O)C2(C)CN(c3cc(F)cc(F)c3)C(=O)O2)CO1 (stereo not shown) , if possible.
Reply | 0

Ask | Also, CC1(C(=O)NC2CCC(C(=O)O)C2)CN(c2cc(F)cc(F)c2)C(=O)O1 (stereo not shown) please.
Reply | 80

Reference source for all entries: patent US20260285850A1
